- Target system: T1, huNav1.7α + β1-β2-β3 (human Nav1.7α co-expressed with human Navβ1, Navβ2 and Navβ3 on cells) (human)
- T1 construct: also called huNav1.7-beta1-beta2-beta3; CHO FlpIn huNav1.7α + β1-β2-β3
- Assay notes: binding FACS, CHO FlpIn cells
- Protocol: Binding of the ISVDs to cell-expressed Nav1.7α was detected via murine anti-Flag (Sigma, catalog #F1804). Briefly, cells were resuspended in FACS buffer (PBS, 10% FBS, NaN₃) and transferred to a 96-well V-bottom plate at 1×10^5 cells/well. Purified FLAG3-tagged ISVD was diluted in FACS buffer and added to the cells for 30 minutes at 4° C. […] Prior to the read-out, the samples were resuspended in 1 μg/mL propidium iodide (Sigma, catalog #P4170) to exclude dead cells. […]
Quick reference: EC50 of the listed items.
Respond numerically; units are nM and should not be typed.

// known answers, use as guide
F010302316 (VHH, also called F0103387G04(L11V, A12V, K33R, R39Q, S50Y, S56D, T60A, G73A, W78V, S79Y, T83R, V89L, N93R, D99R, N100cI)-FLAG3-HIS6) VHH: EVQLVESGGGVVQPGGSLRLSCAASGPVFNINRMAWYRQAPGKQRELVAYVTPTGDISYADSVKGRFTISRDASKRVYLQMNSLRPEDTALYYCRALLQPRSYSITRTYWGQGTLVTVSS :: 8.2
F010301846 (VHH, also called F0103387G04(L11V, A12V, K33R, R39Q, S50Y, S56D, S79Y, T83R, V89L, N93R)) VHH: EVQLVESGGGVVQPGGSLRLSCAASGPVFNINRMAWYRQAPGKQRELVAYVTPTGDISYTDSVKGRFTISRDGSKRWYLQMNSLRPEDTALYYCRALLQPDSYSNTRTYWGQGTLVTVSS :: 21
F010302331 (VHH, also called F0103387G04(L11V, A12V, K33R, R39Q, S50Y, S56D, T60A, G73R, W78V, S79Y, T83R, V89L, N93R, S100R)) VHH: EVQLVESGGGVVQPGGSLRLSCAASGPVFNINRMAWYRQAPGKQRELVAYVTPTGDISYADSVKGRFTISRDRSKRVYLQMNSLRPEDTALYYCRALLQPDRYSNTRTYWGQGTLVTVSS :: 6
F010302326 (VHH, also called F0103387G04(L11V, A12V, K33R, R39Q, S50Y, S56D, T60A, W78V, S79Y, T83R, V89L, N93R, D99R)) VHH: EVQLVESGGGVVQPGGSLRLSCAASGPVFNINRMAWYRQAPGKQRELVAYVTPTGDISYADSVKGRFTISRDGSKRVYLQMNSLRPEDTALYYCRALLQPRSYSNTRTYWGQGTLVTVSS :: 6.2
F010301654 (VHH, also called F0103275B05(L11V, S33R, R39Q, S50Y, S56D, T83R, V89L, N93R)) VHH: EVQLVESGGGVVQPGGSLRLSCAASGSIFNINRMAWYRQAPGKQRELVAYSTNGGDTNYADSVKGRFTISRDNAKRVYLQMNSLRPEDTALYYCRALLQPSIYDISRTYWGQGTLVTVSS :: 32

Look up and state reported EC50 for F010301655 (VHH, also called F0103275B05(L11V, S33R, R39Q, S50Y, S56D, R76N, T83R, V89L, N93R)) VHH: EVQLVESGGGVVQPGGSLRLSCAASGSIFNINRMAWYRQAPGKQRELVAYSTNGGDTNYADSVKGRFTISRDNAKNVYLQMNSLRPEDTALYYCRALLQPSIYDISRTYWGQGTLVTVSS
46

Given F010301842 (VHH, also called F0103387G04(L11V, A12V, K33R, R39Q, S50Y, S56D, T60A, T83R, V89L, N93R)) VHH: EVQLVESGGGVVQPGGSLRLSCAASGPVFNINRMAWYRQAPGKQRELVAYVTPTGDISYADSVKGRFTISRDGSKRWSLQMNSLRPEDTALYYCRALLQPDSYSNTRTYWGQGTLVTVSS , respond with its EC50.
15

Specify EC50 for F010301844 (VHH, also called F0103387G04(L11V, A12V, K33R, R39Q, S50Y, S56D, R76N, T83R, V89L, N93R)) VHH: EVQLVESGGGVVQPGGSLRLSCAASGPVFNINRMAWYRQAPGKQRELVAYVTPTGDISYTDSVKGRFTISRDGSKNWSLQMNSLRPEDTALYYCRALLQPDSYSNTRTYWGQGTLVTVSS and stop.
23
